Tested on: monocytic THP1 cells infected with HIV VSV-G pseudotyped GFP-NEF reporter virus
Assay: cells
Assay type: cell-based
Settings: Human immunodeficiency virus 1, THP-1, 24 h
Property measured: EC50 (nM)
Please reply with the bare figure in nM and do not write the unit itself.

Prompt: Report EC50 for `Cc1cc(/C=C/C#N)cc(C)c1Oc1nc(NC23CC(C#N)(C2)C3)nc2c1n(C(F)F)c(=O)n2C(F)F` please.
Completion: 44

Prompt: // query: `Cc1cc(/C=C/C#N)cc(C)c1Nc1nc(NC23CC(C#N)(C2)C3)nc2nn(C)cc12`
Completion: 119

Prompt: // query: Cc1cc(/C=C/C#N)cc(C)c1Oc1nc(NC23CC(C#N)(C2)C3)nc2c1C(C)N(c1cnn(C(F)(F)F)c1)C2=O (stereo not shown)
Completion: 157

Prompt: // query: `Cc1cc(/C=C/C#N)cc(C)c1Oc1nc(NC23CC(C#N)(C2)C3)nc2nc(-c3ccn(C)n3)[nH]c12`
Completion: 132

Prompt: // query: `Cc1cc(/C=C/C#N)cc(Cl)c1Oc1nc(NC23CC(C#N)(C2)C3)nc2nn(C)cc12`
Completion: 17.4

Prompt: // query: `Cc1cc(/C=C/C#N)cc(C)c1Oc1nc(NC23CC(C#N)(C2)C3)nc2nc(-c3cn[nH]c3)[nH]c12`
Completion: 298

Prompt: // query: `Cc1cc(/C=C/C#N)cc(C)c1Oc1nc(NC23CC(C#N)(C2)C3)nc2nc(C3CC3)[nH]c12`
Completion: 110

* * *

Task for the reader: assign each of the following compounds its reported EC50.
System: CD4 cells, isolated from healthy donor PMBCs, infected with HIV VSV-G pseudotyped GFP-GAG reporter virus
Test: tissue or blood
Assay type: cell-based
Conditions: Homo sapiens, 72 h
Please reply with the bare figure in µM and do not write the unit itself.

Prompt: Report EC50 for `Cc1cc(/C=C/C#N)cc(C)c1Oc1nc(NC23CC(C#N)(C2)C3(F)F)nc2nn(C)cc12` please.
Completion: 0.0193

Prompt: // query: `Cc1cc(/C=C/C#N)cc(C)c1Oc1nc(NC23CC(C#N)(C2)C3)nc2[nH]nc(C)c12`
Completion: 0.0169

Prompt: // query: `Cc1cc(/C=C/C#N)cc(C)c1Oc1nc(NC23CC(C#N)(C2)C3)nc2cc[nH]c12`
Completion: 0.111

Prompt: // query: `Cc1cc(/C=C/C#N)cc(C)c1Oc1nc(NC23CC(C#N)(C2)C3)nc2c1ncn2C(C)C`
Completion: 0.102

Prompt: // query: `Cc1cc(/C=C/C#N)cc(C)c1Oc1nc(NC23CC(C#N)(C2)C3)nc2nc(C(C)(C)O)[nH]c12`
Completion: 0.175

Prompt: // query: `Cc1cc(/C=C/C#N)cc(C)c1Oc1nc(NC23CC(C#N)(C2)C3)nc2[nH]c(=O)[nH]c12`
Completion: 0.0994

Prompt: // query: `Cc1cc(/C=C/C#N)cc(C)c1Oc1nc(NC23CC(C#N)(C2)C3)nc2nc(C3CCC3)[nH]c12`
Completion: 0.151

* * *

Task for the reader: assign each of the following compounds its reported pEC50.
System: monocytic THP1 cells infected with HIV VSV-G pseudotyped GFP-NEF reporter virus
Assay: cells
Type: cell-based
Conditions: Human immunodeficiency virus 1, THP-1, 24 h
Field pEC50 (float): negative decimal logarithm of the concentration in molar.

Prompt: So what pEC50 did `Cc1cc(/C=C/C#N)cc(C)c1Oc1nc(NC23CC(C#N)(C2)C3)nc2noc(C)c12` get with monocytic THP1 cells infected with HIV VSV-G pseudotyped GFP-NEF reporter virus?
Completion: 7.51

Prompt: // query: `C=Cc1c2c(Oc3c(C)cc(/C=C/C#N)cc3C)nc(NC34CC(C#N)(C3)C4)nc2nn1C`
Completion: 7.63

Prompt: // query: Cc1cc(/C=C/C#N)cc(C)c1Oc1nc(NC23CC(C#N)(C2)C3)nc2c1C(O)NC2=O (stereo not shown)
Completion: 7.14

Prompt: // query: `Cc1cc(/C=C/C#N)cc(C)c1Oc1nc(NC23CC(C#N)(C2)C3)nc2nn(-c3cnn(C)c3)cc12`
Completion: 6.96

Prompt: // query: `CNC(=O)CCn1nc(C)c2c(Oc3c(C)cc(/C=C/C#N)cc3C)nc(NC34CC(C#N)(C3)C4)nc21`
Completion: 7.23

Prompt: // query: `CNC(=O)Cn1nc2nc(NC34CC(C#N)(C3)C4)nc(Oc3c(C)cc(/C=C/C#N)cc3C)c2c1C`
Completion: 7.03

Prompt: // query: `CCNc1nc2nc(NC34CC(C#N)(C3)C4)nc(Oc3c(C)cc(/C=C/C#N)cc3C)c2[nH]1`
Completion: 6.93

* * *

Tested on: monocytic THP1 cells infected with HIV VSV-G pseudotyped GFP-NEF reporter virus
Assay: cells
Format: cell-based
Details: Human immunodeficiency virus 1, THP-1, 24 h
Task for the reader: assign each of the following molecules its reported log10(EC50).
Hello, just confirming the data are log10 of EC50 with units of µM.

Prompt: Report log10(EC50) for Cc1cc(/C=C/C#N)cc(C)c1Oc1nc(NC23CC(C#N)(C2)C3)nc2nn(C)c(C)c12 [Compound 86] please.
Completion: -1.74

Prompt: // query: Cc1cc(/C=C/C#N)cc(C)c1Oc1nc(NC23CC(C#N)(C2)C3)nc2c1nc1n2CCCO1 (single isomer, unassigned) [Compound 183]
Completion: -1.10

Prompt: // query: Cc1cc(/C=C/C#N)cc(C)c1Oc1nc(NC23CC(C#N)(C2)C3)nc2nn(C)c(C(F)F)c12 [Compound 92]
Completion: -1.58

Prompt: // query: Cc1cc(/C=C/C#N)cc(C)c1Oc1nc(NC23CC(C#N)(C2)C3)nc2nc(C3CCC3)[nH]c12 [Compound 50]
Completion: -0.78

Prompt: // query: Cc1cc(/C=C/C#N)cc(C)c1Oc1nc(NC23CC(C#N)(C2)C3)nc2nc3n(c12)CC(F)(F)CO3 [Compound 189]
Completion: -0.96

Prompt: // query: Cc1cc(/C=C/C#N)cc(C)c1Oc1nc(NC23CC(C#N)(C2)C3)nc2c1[C@@H](C)NC2=O [Compound 137]
Completion: -2.16

Prompt: // query: Cc1cc(/C=C/C#N)cc(C)c1Oc1nc(NC23CC(C4COC4)(C2)C3)nc2[nH]nc(C)c12 [Compound 154]
Completion: -0.63

* * *

Tested on: CD4 cells, isolated from healthy donor PMBCs, infected with HIV VSV-G pseudotyped GFP-GAG reporter virus
Assay: tissue or blood
Type: cell-based
Details: Homo sapiens, 72 h
Property measured: EC50 (nM)
Please reply with the bare figure in nM and do not write the unit itself.

Prompt: Report EC50 for `Cc1cc(/C=C/C#N)cc(C)c1Oc1nc(NC23CC(C#N)(C2)C3)nc2nc[nH]c12` please.
Completion: 109

Prompt: // query: `Cc1cc(/C=C/C#N)cc(C)c1Oc1nc(NC23CC(C#N)(C2)C3)nc2[nH]ncc12`
Completion: 54.7

Prompt: // query: `Cc1cc(/C=C/C#N)cc(C)c1Oc1nc(NC23CC(C#N)(C2)C3)nc2ncsc12`
Completion: 55

Prompt: // query: `Cc1nc2c(Nc3c(C)cc(/C=C/C#N)cc3C)nc(NC34CC(C#N)(C3)C4)nc2s1`
Completion: 25.9

Prompt: // query: `Cc1cc(/C=C/C#N)cc(C)c1Oc1nc(NC23CC(C#N)(C2)C3)nc2c1cnn2C`
Completion: 106

Prompt: // query: `Cc1cc(/C=C/C#N)cc(C)c1Oc1nc(NC23CC(C#N)(C2)C3)nc2[nH]nnc12`
Completion: 551

Prompt: // query: `Cc1cc(/C=C/C#N)cc(C)c1Oc1nc(NC23CC(C#N)(C2)C3)nc2c1CSC2`
Completion: 63.3

Prompt: // query: `Cc1cc(/C=C/C#N)cc(C)c1Oc1nc(NC23CC(C#N)(C2)C3)nc2c1c(C)nn2C`
Completion: 41

Prompt: // query: `Cc1cc(/C=C/C#N)cc(Cl)c1Oc1nc(NC23CC(C#N)(C2)C3)nc2[nH]nc(C)c12`
Completion: 20.9

Prompt: // query: `Cc1cc(/C=C/C#N)cc(C)c1Oc1nc(NC23CC(C#N)(C2)C3)nc2nc(-c3cnn(C)c3)[nH]c12`
Completion: 274

Prompt: // query: `Cc1cc(/C=C/C#N)cc(C)c1Oc1nc(NC23CC(C#N)(C2)C3)nc2c1CCN2`
Completion: 56

Prompt: // query: `Cc1cc(/C=C/C#N)cc(C)c1Oc1nc(NC23CC(C#N)(C2)C3)nc2[nH]nc(C#N)c12`
Completion: 294

Prompt: // query: `CCn1cnc2nc(NC34CC(C#N)(C3)C4)nc(Oc3c(C)cc(/C=C/C#N)cc3C)c21`
Completion: 51.1

Prompt: // query: `COC(=O)N1Cc2nc(NC34CC(C#N)(C3)C4)nc(Oc3c(C)cc(/C=C/C#N)cc3C)c2C1`
Completion: 76

Prompt: // query: `Cc1cc(/C=C/C#N)cc(C)c1Oc1nc(NC23CC(C#N)(C2)C3)nc2nc(C)n(C)c12`
Completion: 51.1

Prompt: // query: `Cc1cc(/C=C/C#N)cc(C)c1Oc1nc(NC23CC(C#N)(C2)C3)nc2nn(C)cc12`
Completion: 22.9
